Entry source: ChEMBL document CHEMBL3286187

system: Pseudomonas aeruginosa; experiment: Antimicrobial activity against Pseudomonas aeruginosa MTCC-1688 after 24 hrs by broth dilution method; type: functional; settings: MTCC-1688, 24 h
endpoint-name: MIC (µg/mL)
Give bare numbers, in µg/mL.

Could you report MIC for every entry in the following list?
1. O=C(N[C@H](CO)[C@H](O)c1ccc([N+](=O)[O-])cc1)C(Cl)Cl [CHLORAMPHENICOL]
2. C/C(=N\n1c(/N=C/c2ccc(F)cc2)c(C#N)c(-c2ccc([N+](=O)[O-])cc2)c(C#N)c1=O)c1nc2ccccc2[nH]1
3. C/C(=N\n1c(/N=C/c2ccc([N+](=O)[O-])cc2)c(C#N)c(-c2ccc([N+](=O)[O-])cc2)c(C#N)c1=O)c1nc2ccccc2[nH]1
4. C/C(=N\n1c(/N=C/c2cccc([N+](=O)[O-])c2)c(C#N)c(-c2ccc([N+](=O)[O-])cc2)c(C#N)c1=O)c1nc2ccccc2[nH]1

Result:
50
250
1000
500

* * *

tested on: Pseudomonas aeruginosa; assay: Antimicrobial activity against Pseudomonas aeruginosa MTCC-1688 after 24 hrs by broth dilution method; assay type: functional; settings: MTCC-1688, 24 h
Entries whose MIC is below 100 µg/mL take true (1); entries at or above 100 µg/mL take false (0).

Example cases with answers are listed next.
{"smiles-entry": "C/C(=N\\n1c(/N=C/c2ccccc2C)c(C#N)c(-c2ccc([N+](=O)[O-])cc2)c(C#N)c1=O)c1nc2ccccc2[nH]1", "label-class": "false (0)"}
{"smiles-entry": "C/C(=N\\n1c(/N=C/c2cccc(Cl)c2)c(C#N)c(-c2ccc([N+](=O)[O-])cc2)c(C#N)c1=O)c1nc2ccccc2[nH]1", "label-class": "true (1)"}
{"smiles-entry": "COc1ccc(/C=N/c2c(C#N)c(-c3ccc([N+](=O)[O-])cc3)c(C#N)c(=O)n2/N=C(\\C)c2nc3ccccc3[nH]2)cc1", "label-class": "false (0)"}
{"smiles-entry": "C/C(=N\\n1c(/N=C/c2ccc(Br)cc2)c(C#N)c(-c2ccc([N+](=O)[O-])cc2)c(C#N)c1=O)c1nc2ccccc2[nH]1", "label-class": "true (1)"}
{"smiles-entry": "C/C(=N\\n1c(/N=C/c2ccccc2Cl)c(C#N)c(-c2ccc([N+](=O)[O-])cc2)c(C#N)c1=O)c1nc2ccccc2[nH]1", "label-class": "false (0)"}

Request: For this compound, is MIC lower than 100 µg/mL? C/C(=N\n1c(N)c(C#N)c(-c2ccc([N+](=O)[O-])cc2)c(C#N)c1=O)c1nc2ccccc2[nH]1
Result: false (0)

* * *

What IC50 was measured for each of the following?
test system: Vero; assay: Cytotoxicity against african green monkey Vero cells after 72 hrs by MTS-PMS method; type: cell-based; details: Chlorocebus sabaeus
One number for each entry, in µg/mL.

{"smiles-entry": "C/C(=N\\n1c(/N=C/c2ccc(O)cc2)c(C#N)c(-c2ccc([N+](=O)[O-])cc2)c(C#N)c1=O)c1nc2ccccc2[nH]1", "experimental-target": "Vero", "IC50 [µg/mL]": 13.7}

# ---- query molecule ----
Request: Quick check: IC50 of C/C(=N\n1c(/N=C/c2cccc(O)c2)c(C#N)c(-c2ccc([N+](=O)[O-])cc2)c(C#N)c1=O)c1nc2ccccc2[nH]1 ?
Result: 17
